Ki values for Tyrosine-protein kinase JAK3 (Homo sapiens) compiled from several publications are listed below.

Worked examples, 8 compounds total:
CN(C)CCNC(=O)c1ccc(-c2cnc3c(-c4ccccn4)c(N)nn3c2)nc1
500 to 5000 nM
CN(CCC#N)C(=O)c1ccc(-c2ncnc3[nH]ccc23)o1
< 100 nM
c1nc(CCC2OCCCO2)c2cc[nH]c2n1
500 to 5000 nM
CCCn1cc(-c2ncnc3[nH]cc(C)c23)cn1
100 to 500 nM
N#CCCCCc1ncnc2[nH]ccc12
500 to 5000 nM
CCCN(CCC)C(=O)c1cc(-c2ncnc3[nH]ccc23)c[nH]1
< 100 nM
CNCCN(C)C(=O)c1cccc(-c2cnc3c(-c4ccccn4)c(N)nn3c2)c1
500 to 5000 nM
NS(=O)(=O)c1ccc(Nc2nccc(-c3ccc4c(c3)N(Cc3cccnc3)C(=O)CO4)n2)cc1
< 1000 nM

Entry CCN(CCC#N)C(=O)c1cc(-c2ncnc3[nH]ccc23)c[nH]1 : Ki on Tyrosine-protein kinase JAK3 (Homo sapiens) = < 100 nM

Entry Nc1nn2cc(-c3ccc(C(=O)NCCF)cn3)cnc2c1-c1ccccn1 : Ki on Tyrosine-protein kinase JAK3 (Homo sapiens) = > 5000 nM

Entry O=C(Nc1nc(-c2ncnc3[nH]ccc23)cs1)C(O)C(F)(F)F (centres unmarked) : Ki on Tyrosine-protein kinase JAK3 (Homo sapiens) = < 100 nM

Entry COC(=O)c1cc(N2CCC[C@@H]2C(=O)NCC(F)(F)F)nc(-c2c[nH]c3ncc(Cl)cc23)n1 : Ki on Tyrosine-protein kinase JAK3 (Homo sapiens) = ≥ 100 nM

Entry CC(C)CN(CCC(F)(F)F)C(=O)c1cc(-c2ncnc3[nH]cc(Cl)c23)c[nH]1 : Ki on Tyrosine-protein kinase JAK3 (Homo sapiens) = 100 to 500 nM

Entry Fc1ccc(F)c(C2Nc3ccccc3-c3ncnc4[nH]cc2c34)c1F (centres unmarked) : Ki on Tyrosine-protein kinase JAK3 (Homo sapiens) = ≤ 250 nM

Entry O=C1Nc2ccccc2-c2ccnc3[nH]cc(c23)C1c1ccc(O)cc1 (centres unmarked) : Ki on Tyrosine-protein kinase JAK3 (Homo sapiens) = ≤ 250 nM

Entry CC(=O)N1[C@H](C)CN(c2cc(-n3cnc(Nc4ccc(NC(=O)C(F)(F)F)cc4)n3)ccn2)C[C@@H]1C : Ki on Tyrosine-protein kinase JAK3 (Homo sapiens) = < 10 nM

Entry CC(C)(Nc1ccnc(-c2ccc(=O)[nH]c2)n1)C(=O)NCC(F)(F)F : Ki on Tyrosine-protein kinase JAK3 (Homo sapiens) = 1000 to 10000 nM

Entry CN1CCCN(c2ncccc2-c2cnc3c(-c4ccccn4)c(N)nn3c2)CC1 : Ki on Tyrosine-protein kinase JAK3 (Homo sapiens) = > 5000 nM

Entry CC[C@@H]1CC[C@@H](CC)N1C(=O)c1ccc(-c2ncnc3[nH]ccc23)o1 : Ki on Tyrosine-protein kinase JAK3 (Homo sapiens) = < 100 nM

Entry N#CCC(=O)N1CC=C(c2ncnc3[nH]ccc23)CC1 : Ki on Tyrosine-protein kinase JAK3 (Homo sapiens) = 500 to 5000 nM

Entry CC(C)CN(C)CCCc1cnc2c(-c3ccccn3)c(N)nn2c1 : Ki on Tyrosine-protein kinase JAK3 (Homo sapiens) = > 5000 nM

Entry Oc1ccc(C2=Nc3ccccc3-c3ccnc4[nH]cc2c34)cc1OC(F)(F)F : Ki on Tyrosine-protein kinase JAK3 (Homo sapiens) = ≤ 250 nM
